# Tested on: SNB-19 CNS
# TEST DESCRIPTION: NCI-60 one-dose screen, 48 h (100 = growth as untreated, 0 = no growth, -100 = all killed)
# PROTOCOL CONDITIONS: 10 µM unless noted
About 83,000 compounds went through this panel and 20% of them were active in at least one assay; those are over-represented in the sample as a whole.
EXPERIMENTAL READOUT: growth (%)
Write the number in % without appending the unit.

Consider the following illustrative entries.
molecule=Cc1cc(O)c(C(C)C)cc1N target="SNB-19 CNS" experimental_readout=growth unit=% test_result=117
molecule=CCN(CC)C(=O)c1cccnc1 target="SNB-19 CNS" experimental_readout=growth unit=% test_result=105
molecule=C#CCN(C)Cc1ccccc1 target="SNB-19 CNS" experimental_readout=growth unit=% test_result=102
molecule=OCc1ccccn1 target="SNB-19 CNS" experimental_readout=growth unit=% test_result=109

Q: Which value of growth has been reported for COc1ccc(NC(=S)Nc2ccccn2)cc1 in the records?
Ans: 98.9

###

# Test system: COLO 205 colon
# TEST DESCRIPTION: NCI-60 one-dose screen, 48 h
# PROTOCOL CONDITIONS: 10 µM unless noted
About 83,000 compounds went through this panel and 20% of them were active in at least one assay; those are over-represented in the sample as a whole. Calls of active or inactive are those of the source. Rule for the calls: active = growth percent below 10; inactive = the rest.
Please reply with one of these outcomes: true (1) = active, false (0) = inactive

Completed entries (count: 6):
compound=C1CCCCNCCC1 category="false (0)"
compound="OC(COc1cccc2ccccc12)CN1CCN(c2ccc(Cl)cc2)CC1 (stereo not given)" category="false (0)"
compound=O=C(O)c1cc(C(=O)O)cc([N+](=O)[O-])c1 category="false (0)"
compound=CC12CCC(CC1)C(C)(C)O2 category="false (0)"
compound=O=C1c2ccccc2C(=O)N1/N=C/c1ccc2c(c1)OCO2 category="false (0)"
compound=CCN(CC)C(=O)c1cccnc1 category="false (0)"

Q: Write down the call the test reported for this compound. Item: CN(Cc1ccccc1)Cc1ccccc1
Ans: false (0)

Q: Next compound up: CC1=NN(c2ccccc2)C(=O)C1C(=O)c1ccccc1 (stereo not given)
Ans: false (0)

Q: Next compound up: Oc1ccccc1C=NCC1CCC(CN=Cc2ccccc2O)CC1 (stereo not given)
Ans: false (0)

Q: Next compound up: CC1=C[C@H]2c3c(c(O)c(O)c4oc5cc(O)cc(O)c5c(=O)c34)[C@H](c3cc(O)c(O)c4oc5cc(O)cc(O)c5c(=O)c34)[C@H]2C(C)(C)C1
Ans: true (1)

Q: Next compound up: CC#C[C@]1(O)CC[C@H]2[C@@H]3CCC4=CC(=O)CCC4=C3[C@@H](c3ccc4c(c3)OCO4)C[C@@]21C
Ans: false (0)

Q: Next compound up: CC(/C=N/N1C(=O)c2ccccc2C1=O)c1ccccc1 (stereo not given)
Ans: false (0)

Q: Next compound up: CCOC(=O)C(CNc1ccccc1)C(=O)OCC
Ans: false (0)

Q: Next compound up: CN(C)c1ccc(C(Cc2ccc3ccccc3n2)Cc2ccc3ccccc3n2)cc1
Ans: false (0)

Q: Next compound up: CCCCCN(CCCCC)CC(O)c1cc2c(c3ccccc13)CCCC2 (stereo not given)
Ans: false (0)

Q: Next compound up: O=[N+]([O-])c1ccc2nc3c4ccccc4c4ccccc4c3nc2c1
Ans: false (0)

Q: Next compound up: CC(CN=Cc1ccccc1O)N=Cc1ccccc1O (stereo not given)
Ans: false (0)

Q: Next compound up: N#C/C(=C/c1c(O)ccc2ccccc12)C(N)=O
Ans: false (0)

Q: Next compound up: Nc1ccc2ccc(N)cc2c1
Ans: false (0)

Q: Next compound up: CCCCCCCCCCCCOc1ccccc1C=O
Ans: false (0)
